B1: mRNA-splicing (parent)
chain: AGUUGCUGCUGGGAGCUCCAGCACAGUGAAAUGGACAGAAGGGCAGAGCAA

Variants of: B1
Assay: exon inclusion enrichment index; higher = more inclusion; WT1 exon 5 minigene, HEK293
Measured exon inclusion enrichment index of individual entries
MEASURED QUANTITY: exon inclusion enrichment index

INSERT INTO measurements (mutations, reported) VALUES
  ('G5U G8U C9U G21C', 0.162),
  ('G5C C6G U7C U10C A29C A30G', 5.17),
  ('C36U A37U', 0.0501),
  ('G5C C6U G8C C9U U10C G41C G42A', 2),
  ('G5C C6G U7C U10C A35G C36A', 2.07),
  ('G5C C6U G8C C9U U10C A14U G15C', 0.66),
  ('G5A C6G U7G C9A A14U G15C', 0.00121),
  ('G5C C6A U7C G8A U10A U27C G28A', 0.142),
  ('G5A C6G U7G C9A C36A A37G', 0.00191),
  ('G5C C6G U7C U10C C24G A25G', 2.96),
  ('G5U G8U C9U A47C G48A', 0.0919),
  ('G5A C6U U7A G8U C9A C36U A37G', 0.0518),
  ('G5U G8U C9U A31G', 0.187),
  ('G5C C6U G8C C9U U10C G11C G12U', 0.675),
  ('C6A U7A C9A U10A G34C A35U', 0.104),
  ('G5C C6G U7A G8U U10C', 2.93),
  ('G5C C6G U7C U10C A25G G26A', 5.6),
  ('G5A C6G U7G C9A A30U A31C', 0.00225),
  ('C6A U7C C9A U10C A35G C36A', 2.29),
  ('G5C C6G U7C U10C C22A', 3.06),
  ('C6A U7C C9A U10C C36G', 2.75),
  ('G5C C6G U7C G8C U10C', 2.87);
